Here the recorded pIC50 is given for each entry.
- Tested on: HCT-116 cells
- assay overview: MTT anticancer assay on colorectal cancer cell line HCT-116
- Format: cell-based, human
- condition context: Homo sapiens, HCT-116, 72 h, read-out: IC50 HCT-116, MTT, 72 h, mean ± SEM
pIC50: −log10 of the molar value.

{"compound": "CC(=O)c1ccc(-n2cc(Cn3c(=O)c(Cc4ccccc4)nc4ccccc43)nn2)cc1", "pIC50": 6.66}
{"compound": "O=c1c(Cc2ccccc2)nc2ccccc2n1Cc1cn(-c2ccc(O)cc2)nn1", "pIC50": 6.65}
{"compound": "O=C(O)CNC(=O)c1ccc(-n2cc(Cn3c(=O)c(Cc4ccccc4)nc4ccccc43)nn2)cc1", "pIC50": 6.94}
{"compound": "O=c1c(Cc2ccccc2)nc2ccccc2n1Cc1cn(-c2ccc(I)cc2)nn1", "pIC50": 6.87}
{"compound": "COc1cccc2c1C(=O)c1c(O)c3c(c(O)c1C2=O)C[C@@](O)(C(=O)CO)C[C@@H]3O[C@H]1C[C@H](N)[C@H](O)[C@H](C)O1 [DOX, doxorubicin, reference compound]", "pIC50": 6.12}
{"compound": "CC(=O)NS(=O)(=O)c1ccc(-n2cc(Cn3c(=O)c(Cc4ccccc4)nc4ccccc43)nn2)cc1", "pIC50": 6.48}

Recorded values, source paper PMC11170630.
